measured.on: Thromboxane A2 receptor (Homo sapiens, UniProt P21731)
Sequence (P21731 as listed by the source): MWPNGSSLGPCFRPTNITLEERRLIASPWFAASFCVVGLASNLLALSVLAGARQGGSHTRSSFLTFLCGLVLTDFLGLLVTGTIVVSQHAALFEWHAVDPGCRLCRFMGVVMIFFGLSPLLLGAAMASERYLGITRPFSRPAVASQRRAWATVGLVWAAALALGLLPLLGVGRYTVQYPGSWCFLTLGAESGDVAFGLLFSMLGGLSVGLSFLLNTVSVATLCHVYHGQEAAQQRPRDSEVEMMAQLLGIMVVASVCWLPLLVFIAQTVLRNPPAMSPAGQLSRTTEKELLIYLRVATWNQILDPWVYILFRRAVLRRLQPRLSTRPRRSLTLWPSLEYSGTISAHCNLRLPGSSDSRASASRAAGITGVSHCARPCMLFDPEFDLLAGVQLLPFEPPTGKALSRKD
readout.label: Ki (nM)
Give just the numeric value; nM need not be written.

Response field Ki (Thromboxane A2 receptor (Homo sapiens, UniProt P21731)) for item Cc1ccc(Nc2ccc([N+](=O)[O-])cc2S(=O)(=O)NC(=O)NC(C)(C)C)cc1 : 0.8
